- Test system: CLK2
- recordedConditions: Compound Concentration (nM):1000;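 also: KINOMEscan scanMAX binding as percent activity remaining versus control; lower means stronger binding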
Would you mind telling me the reported Percent Control of each entry?
One number for each entry, in %.

Some compounds with known Percent Control results, for comparison:
>  <compound>
COc1cc(/C=N/Nc2ncnc3[nH]ncc23)ccc1O [GW578748X]

>  <reportedResult>
29

$$$$
>  <compound>
C/C(Nc1ccc(S(N)(=O)=O)cc1)=C1/C(=O)Nc2ccccc21 [GW335962X]

>  <reportedResult>
78

$$$$
>  <compound>
Cl.O=S1CCN(Cc2ccc(-c3ccc4ncnc(Nc5ccc(OCc6ccccc6)c(F)c5)c4c3)o2)CC1 [GW576924A]

>  <reportedResult>
100

$$$$
>  <compound>
CN(C)CCNC(=O)Nc1ccc(N(C)c2ccnc(Nc3ccc(CS(C)(=O)=O)cc3)n2)cc1.Cl [GW830900A]

>  <reportedResult>
94

$$$$

// query Percent Control value for entry COc1ccc2c(-c3ccnc(Nc4cccc(OC(F)(F)F)c4)n3)cnn2n1 [GW810372X] 2.8

* * *

Would you mind telling me the reported Percent Control of each entry?
- Tested on: MRCKA
- Construct: gene CDC42BPA
- recordedConditions: Compound Concentration (nM):1000
One number for each entry, in %.

Some molecules with known Percent Control results, for comparison:
>  <molecule>
Cl.O=C(O[C@H]1CN[C@H](C#Cc2cc3ncnc(Nc4ccc5c(cnn5Cc5ccccc5)c4)c3s2)C1)N1CCOCC1 [GSK200398A]

>  <readoutUnit>
%

>  <Percent Control>
100

$$$$
>  <molecule>
Cc1cc(O)cc(C)c1/C=C/c1cncc(C(N)=O)c1 [GW435821X]

>  <readoutUnit>
%

>  <Percent Control>
100

$$$$
>  <molecule>
CCS(=O)(=O)c1ccc(OC)c(Nc2ncc(-c3cccc(OC)c3)o2)c1 [GW580509X]

>  <readoutUnit>
%

>  <Percent Control>
100

$$$$
>  <molecule>
CCn1c(-c2nonc2N)nc2c(C#CC(C)(C)O)nc(OCCNC)cc21.Cl

>  <readoutUnit>
%

>  <Percent Control>
100

$$$$
>  <molecule>
COc1cc(/C=N/Nc2ncnc3[nH]ncc23)ccc1O [GW578748X]

>  <readoutUnit>
%

>  <Percent Control>
100

$$$$

Batch: Percent Control for all items listed.
1. CN1CCN(C(=O)c2ccc(NC(=O)Nc3ccc(N(C)c4ccnc(Nc5ccc(CS(C)(=O)=O)cc5)n4)cc3)cc2)CC1.Cl [GW830263A]
2. COc1cccc(-n2ncc3c(N/N=C/c4ccncc4)ncnc32)c1 [GW784752X]
3. COc1cc(C=NNc2ncnc3c2cnn3-c2ccccc2)ccc1O [GW513184X]
4. CC(C)COC(=O)c1ccc2c(c1)/C(=C/Nc1ccc(S(N)(=O)=O)cc1)C(=O)N2 [GW416981X]
5. Cl.O=C(Nc1ccc(Oc2ccc3[nH]c(NC(=O)c4ccco4)nc3c2)cc1)Nc1cc(C(F)(F)F)ccc1F [GW683134A]
6. COc1cc2ncnc(Nc3ccc4c(cnn4Cc4ccccc4)c3)c2cc1OC.Cl [GW282449A]
7. CN(C)c1cc2c(Nc3ccc4c(cnn4Cc4ccccc4)c3)ncnc2cn1 [GW282974X]
8. Cl.O=S1CCN(Cc2ccc(-c3ccc4ncnc(Nc5ccc(OCc6ccccc6)c(F)c5)c4c3)o2)CC1 [GW576924A]

89
100
100
100
94
100
100
100

// query Percent Control value for entry COc1ccccc1-c1cc(/C=C2\C(=O)Nc3ncc(Br)cc32)cc(Br)c1O [GW442130X] 100
